Test system: K penumoniae H 523
Test: Antibacterial activity (MIC) against MDR Gram negative strains
Type: cell-based
Details: Table 4; K penumoniae H 523, KPC ESBL, MDR; read-out: MIC
Measured Property: MIC (µg/mL)

(1) O=C(NNC(=O)[C@@H]1CC[C@@H]2CN1C(=O)N2OS(=O)(=O)O)[C@@H]1CCCNC1
(2) NCCC(=O)NNC(=O)[C@H]1CC[C@@H]2CN1C(=O)N2OS(=O)(=O)O (relative stereo)
IN: Could you check which of 1 and 2 has a smaller value for MIC? Choose, then provide that item's label.
OUT: 2

* * *

System: E. coli NCTC 13351
Experiment: Antibacterial activity (MIC), agar dilution per CLSI
Type: cell-based
Settings: Escherichia coli, NCTC13351, Table 3, E. coli NCTC 13351 expressing ESBL, 16-20 hours, 35±2° C., read-out: MIC
Measured Property: MIC (µg/mL)

# count of solved cases: 5
Molecule | MIC, µg/mL
O=C(NNC(=O)[C@H]1CC[C@@H]2CN1C(=O)N2OS(=O)(=O)O)[C@H]1CCNC1 (mixture of isomers) [Example 33] | 1
O=C(NNC(=O)[C@H]1CC[C@@H]2CN1C(=O)N2OS(=O)(=O)O)[C@@H]1COCCN1 (mixture of isomers) [Example 39] | 4
CC(C)(CN)C(=O)NNC(=O)[C@H]1CC[C@@H]2CN1C(=O)N2OS(=O)(=O)O (relative stereo) [Example 22] | 4
NCCC(=O)NNC(=O)[C@H]1CC[C@@H]2CN1C(=O)N2OS(=O)(=O)O (relative stereo) [Example 8] | 1
NCC1(C(=O)NNC(=O)[C@H]2CC[C@@H]3CN2C(=O)N3OS(=O)(=O)O)CC1 (relative stereo) [Example 23] | 4

(P) NNC(=O)[C@H]1CC[C@@H]2CN1C(=O)N2OS(=O)(=O)O (relative stereo) [Example 6]
(Q) O=C(O)CON1C(=O)N2C[C@H]1CC[C@H]2C(=O)NNC(=O)[C@@H]1CCCNC1 [Example 4]
IN: Could you check which of P and Q has a smaller value for MIC? Choose, then provide that item's label.
OUT: Q
(Q: 8 µg/mL, P: 32 µg/mL)

* * *

System: P. aeruginosa Ps 21
Test: Antibacterial activity (MIC) against MDR Gram negative strains
Type: cell-based
Settings: Pseudomonas aeruginosa, PS21; Table 5; P. aeruginosa Ps 21; read-out: MIC
Measured Property: MIC (µg/mL)

# count of solved cases: 4
Compound | Measured Property | Unit Tag | Recorded Measurement
O=C(NNC(=O)[C@H]1CC[C@@H]2CN1C(=O)N2OS(=O)(=O)O)C1CCCNC1 (mixture of isomers) [Example 14] | MIC | µg/mL | 16
NCCC(=O)NNC(=O)[C@H]1CC[C@@H]2CN1C(=O)N2OS(=O)(=O)O (relative stereo) [Example 8] | MIC | µg/mL | 16
O=C(NNC(=O)[C@@H]1CC[C@@H]2CN1C(=O)N2OS(=O)(=O)O)[C@@H]1CCCN1 [Example 1] | MIC | µg/mL | 16
O=C(NNC(=O)[C@@H]1CC[C@@H]2CN1C(=O)N2OS(=O)(=O)O)[C@@H]1CCNC1 [Example 3] | MIC | µg/mL | 4

(A) O=C(NNC(=O)[C@H]1CC[C@@H]2CN1C(=O)N2OS(=O)(=O)O)C1CCNCC1 (relative stereo) [Example 13]
(B) C[C@H]1[C@H](NC(=O)/C(=N\OC(C)(C)C(=O)O)c2csc(N)n2)C(=O)N1S(=O)(=O)O [Aztreonam, reference compound]
IN: Could you check which of A and B has a smaller value for MIC? Choose, then provide that item's label.
OUT: B

* * *

Tested on: E. coli NCTC 13351
Assay: Antibacterial activity (MIC), agar dilution per CLSI
Type: cell-based
Details: Escherichia coli, NCTC13351, Table 3, E. coli NCTC 13351 expressing ESBL, 16-20 hours, 35±2° C., read-out: MIC
Measured Property: MIC (µg/mL)

Compound | Measured Property | Recorded Measurement
O=C(NNC(=O)[C@H]1CC[C@@H]2CN1C(=O)N2OS(=O)(=O)O)C1CCNCC1 (relative stereo) [Example 13] | MIC | 1
O=C(CN1CCNCC1)NNC(=O)[C@H]1CC[C@@H]2CN1C(=O)N2OS(=O)(=O)O (relative stereo) [Example 19] | MIC | 1
O=C(NNC(=O)[C@H]1CC[C@@H]2CN1C(=O)N2OS(=O)(=O)O)[C@@H]1C[C@H](F)CN1 (mixture of isomers) [Example 11] | MIC | 2
O=C(NNC(=O)[C@H]1CC[C@@H]2CN1C(=O)N2OS(=O)(=O)O)C1CCCCN1 (mixture of isomers) [Example 16] | MIC | 1
O=C(NNC(=O)[C@@H]1CC[C@@H]2CN1C(=O)N2OS(=O)(=O)O)[C@@H]1CCNC1 [Example 3] | MIC | 0.25
NCCOCC(=O)NNC(=O)[C@H]1CC[C@@H]2CN1C(=O)N2OS(=O)(=O)O (relative stereo) [Example 27] | MIC | 4

(P) O=C(NNC(=O)[C@@H]1CC[C@@H]2CN1C(=O)N2OS(=O)(=O)O)[C@@H]1CCCN1 [Example 1]
(Q) O=C(NNC(=O)[C@H]1CCCCN1)[C@H]1CC[C@@H]2CN1C(=O)N2OS(=O)(=O)O (mixture of isomers) [Example 18]
IN: Returns: the argument ( P or Q ) having the larger MIC. Choose, then provide that item's label.
OUT: Q

(1) O=C(CC(=O)N1CCNCC1)NNC(=O)[C@H]1CC[C@@H]2CN1C(=O)N2OS(=O)(=O)O (relative stereo) [Example 40]
(2) O=C(NNC(=O)[C@H]1CC[C@@H]2CN1C(=O)N2OS(=O)(=O)O)C1CCCNC1 (mixture of isomers) [Example 14]
(3) O=C(NNC(=O)[C@@H]1CC[C@@H]2CN1C(=O)N2OC(F)(F)C(=O)O)[C@@H]1CCCNC1 [Example 5]
IN: rank_up(items): orders items by reported MIC in ascending numerical order. Would you mind listing the labels in the order requested?
OUT: 3, 2, 1
(3: 0.25 µg/mL, 2: 0.5 µg/mL, 1: 1 µg/mL)

* * *

System: K penumoniae H 521
Experiment: Antibacterial activity (MIC) against MDR Gram negative strains
Assay type: cell-based
Settings: Table 4; K penumoniae H 521, KPC ESBL, MDR; read-out: MIC
Experimental: The biological activity of representative compounds according to the invention against various bacterial strains was investigated. In a typical study, overnight grown bacterial cultures were diluted appropriately and inoculated on the agar media containing doubling dilutions of the test compounds. Observation for growth or no growth was performed after 16-20 hours of incubation at 35±2° C. in ambient air. […] The activities are expressed as MICs (mcg/ml).
Measured Property: MIC (µg/mL)

Compound | Unit Tag | MIC
C[C@@H](O)[C@H]1C(=O)N2C(C(=O)O)=C(SCCN=CN)C[C@H]12 [Imipenem, reference compound] | µg/mL | 16
O=C(NNC(=O)[C@@H]1CC[C@@H]2CN1C(=O)N2OS(=O)(=O)O)[C@@H]1CCCN1 | µg/mL | 0.5

(I) O=C(NNC(=O)[C@@H]1CC[C@@H]2CN1C(=O)N2OS(=O)(=O)O)[C@@H]1CCCNC1
(II) O=C(NNC(=O)[C@H]1CC[C@@H]2CN1C(=O)N2OS(=O)(=O)O)C1CCNCC1 (relative stereo)
(III) O=C(NNC(=O)[C@H]1CC[C@@H]2CN1C(=O)N2OS(=O)(=O)O)[C@@H]1C[C@H](F)CN1 (mixture of isomers)
IN: Sort by MIC, descending. Would you mind listing the labels in the order requested?
OUT: III, II, I

(P) O=C(NNC(=O)[C@@H]1CC[C@@H]2CN1C(=O)N2OS(=O)(=O)O)[C@@H]1CCNC1
(Q) O=C(CN1CCNCC1)NNC(=O)[C@H]1CC[C@@H]2CN1C(=O)N2OS(=O)(=O)O (relative stereo)
IN: Could you check which of P and Q has a smaller value for MIC? Choose, then provide that item's label.
OUT: P
(P: 0.5 µg/mL, Q: 1 µg/mL)

* * *

System: K penumoniae H 523
Test: Antibacterial activity (MIC) against MDR Gram negative strains
Format: cell-based
Details: Table 4; K penumoniae H 523, KPC ESBL, MDR; read-out: MIC
Measured Property: MIC (µg/mL)

# count of solved cases: 5
Compound | Test Target | Measured Property | Recorded Measurement
O=C(NNC(=O)[C@H]1CC[C@@H]2CN1C(=O)N2OS(=O)(=O)O)C1CNCCN1 (mixture of isomers) | K penumoniae H 523 | MIC | 2
O=C(NNC(=O)[C@@H]1CC[C@@H]2CN1C(=O)N2OS(=O)(=O)O)[C@@H]1CCNC1 | K penumoniae H 523 | MIC | 0.5
O=C(NNC(=O)[C@@H]1CC[C@@H]2CN1C(=O)N2OS(=O)(=O)O)[C@@H]1CCCN1 | K penumoniae H 523 | MIC | 0.5
O=C(CN1CCNCC1)NNC(=O)[C@H]1CC[C@@H]2CN1C(=O)N2OS(=O)(=O)O (relative stereo) | K penumoniae H 523 | MIC | 1
O=C(NNC(=O)[C@H]1CC[C@@H]2CN1C(=O)N2OS(=O)(=O)O)C1CCNCC1 (relative stereo) | K penumoniae H 523 | MIC | 0.5

(a) O=C(NNC(=O)[C@H]1CC[C@@H]2CN1C(=O)N2OS(=O)(=O)O)C1CCCNC1 (mixture of isomers)
(b) NCC(=O)NNC(=O)[C@H]1CC[C@@H]2CN1C(=O)N2OS(=O)(=O)O (relative stereo)
IN: Returns: the argument ( a or b ) having the larger MIC. Choose, then provide that item's label.
OUT: b
(b: 1 µg/mL, a: 0.25 µg/mL)

The reported measurements were obtained from patent US9381200B2.
